The compounds listed here are annotated with their pIC50.
Molecular target: His-GST-TVMV-hRIPK1(1-324) (Homo sapiens (Human))
Sequence (Q13546 1-324): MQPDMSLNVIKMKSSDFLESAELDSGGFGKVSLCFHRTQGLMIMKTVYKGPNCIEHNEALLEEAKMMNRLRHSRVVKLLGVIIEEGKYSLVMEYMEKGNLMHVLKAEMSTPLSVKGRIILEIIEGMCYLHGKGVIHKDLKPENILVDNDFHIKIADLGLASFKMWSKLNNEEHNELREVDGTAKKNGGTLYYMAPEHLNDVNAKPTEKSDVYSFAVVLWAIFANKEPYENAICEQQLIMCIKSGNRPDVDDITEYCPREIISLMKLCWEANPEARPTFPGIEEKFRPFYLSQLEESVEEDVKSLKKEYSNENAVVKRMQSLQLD
Test: RIPK1 HTRF Binding Assay
Settings: HTRF binding, 1 h at rt; read-out: RIPK1 (IC50)
// pIC50: -log10(molar conc.)

Solved cases (3 shown):
compound	pIC50
CC(=O)Nc1cn2nc(-c3cc(C(=O)NCCC(C)c4ccccc4)cnc3C)ccc2n1 (stereo not shown)	8.22
CC(=O)Nc1cn2nc(-c3cc(C(=O)NCc4cc(F)cc(F)c4OC4CCCOC4)c(C)nc3C)ccc2n1 (stereo not shown)	7.92
[2H]C([2H])([2H])[C@@H](NC(=O)c1c(OC)ccc(-c2ccc3nc(NC(C)=O)cn3n2)c1F)c1cc(OC(F)(F)F)ccc1F	8.22

Here's the next entry for you.
Would you kindly share the measured pIC50 for "COc1ncc(-c2ccc3nc(NC(=O)CC#N)cn3n2)cc1C(=O)NCc1cc(F)cc(F)c1OCC1CC1" ?
7.85

Reference source: patent US11440913B2
